endpointLabel: IC50 (µM)
Give the quantity in µM, number only.

Tested system Prothrombin (Homo sapiens); IC50 recorded for "COc1ccc(-c2ccc(C(=O)NCC(C)(C)C)cc2C(=O)O)c(C(=O)Nc2ccc(C(=N)N)cc2)n1" was 21.7

Record "COc1ccc(-c2ccc(C(=O)N[C@H](CO)C(C)(C)C)cc2C(=O)O)c(C(=O)Nc2ccc(C(=N)N)cc2)n1" / Prothrombin (Homo sapiens), IC50 recorded as 24

###

measurementTarget: Coagulation factor X (Homo sapiens)
Sequence (P00742 41-179 limits assumed): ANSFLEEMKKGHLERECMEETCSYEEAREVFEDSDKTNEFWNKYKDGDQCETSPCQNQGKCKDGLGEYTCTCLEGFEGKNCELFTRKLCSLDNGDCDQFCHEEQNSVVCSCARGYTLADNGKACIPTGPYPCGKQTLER
Sequence (P00742 235-488 limits assumed): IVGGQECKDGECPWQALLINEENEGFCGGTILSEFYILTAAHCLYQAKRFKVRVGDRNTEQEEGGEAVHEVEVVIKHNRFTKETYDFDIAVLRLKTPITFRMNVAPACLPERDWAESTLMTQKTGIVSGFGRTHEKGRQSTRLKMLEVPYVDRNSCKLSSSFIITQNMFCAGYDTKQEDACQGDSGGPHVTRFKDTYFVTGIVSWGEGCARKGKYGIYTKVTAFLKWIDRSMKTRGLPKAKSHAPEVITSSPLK
assayMethodText: Inhibition of human F10a using S-2222 as substrate after 3 mins
Provide the recorded pIC50 for the entries that follow.
// pIC50: -log10(molar conc.)

# compound "COc1ccc(-c2ccc(C(=O)NCC(C)(C)C)cc2C(=O)O)c(C(=O)Nc2ccc(C(=N)N)cc2)n1" ; its pIC50 = 7.00

// recorded pIC50 for "COc1ccc(-c2ccc(C(=O)N[C@H](CO)C(C)(C)C)cc2C(=O)O)c(C(=O)Nc2ccc(C(=N)N)cc2)n1" : 7.46

###

measurementTarget: Trypsin (Homo sapiens, UniProt P07477+P07478+P35030)
assayMethodText: Inhibition of human trypsin using chromozyme-TRY as substrate after 3 mins
Type: protein assay
endpointLabel: IC50 (µM)
The reply should contain only the number, in µM.

Recorded result, "COc1ccc(-c2ccc(C(=O)NCC(C)(C)C)cc2C(=O)O)c(C(=O)Nc2ccc3c(N)nccc3c2)n1" , IC50: 10.8

# IC50 (molecule: "COc1ccc(-c2ccc(C(=O)NCC(C)(C)C)cc2C(=O)O)c(C(=O)Nc2ccc(C(=N)N)cc2)n1" ) is 0.64

Record "COc1ccc(-c2ccc(C(=O)N[C@H](CO)C(C)(C)C)cc2C(=O)O)c(C(=O)Nc2ccc(C(=N)N)cc2)n1" . Reported IC50: 1.6

Form: molecule = "COc1ccc(-c2ccc(C(=O)N[C@H](CO)C(C)(C)C)cc2C(=O)O)c(C(=O)Nc2ccc3c(N)nccc3c2)n1" ; IC50 = 7.9

###

Notes on log10 of IC50 obtained with Coagulation factor IX (Homo sapiens).
Sequence (P00740 47-191 limits assumed): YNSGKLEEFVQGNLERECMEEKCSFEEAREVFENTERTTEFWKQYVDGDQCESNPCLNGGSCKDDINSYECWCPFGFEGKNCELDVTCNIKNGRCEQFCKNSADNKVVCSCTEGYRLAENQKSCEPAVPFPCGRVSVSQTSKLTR
Sequence (P00740 227-461 limits assumed): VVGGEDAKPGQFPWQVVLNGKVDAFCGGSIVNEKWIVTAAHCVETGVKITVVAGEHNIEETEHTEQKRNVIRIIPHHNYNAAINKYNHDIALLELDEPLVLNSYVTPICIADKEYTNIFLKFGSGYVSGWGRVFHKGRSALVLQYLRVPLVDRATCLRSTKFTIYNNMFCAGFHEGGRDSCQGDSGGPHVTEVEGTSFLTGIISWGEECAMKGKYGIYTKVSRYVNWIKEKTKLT
Hello, just confirming the data are log10 of IC50 with units of nM.

log10 of IC50 measured on "COc1ccc(-c2ccc(C(=O)N[C@H](CO)C(C)(C)C)cc2C(=O)O)c(C(=O)Nc2ccc3nc(N)[nH]c3c2)n1" = 1.11

Please fill in: log10 of IC50 reported for "COc1ccc(-c2ccc(C(=O)N[C@H](CO)C(C)(C)C)cc2C(=O)O)c(C(=O)Nc2cccc(C(N)=O)c2)n1" = 4.30

Per the record, "COc1ccc(-c2ccc(C(=O)N[C@H](CO)C(C)(C)C)cc2C(=O)O)c(C(=O)Nc2ccc(C(=N)N)cc2)n1" has log10 of IC50 of 1.64

log10 of IC50 for "COc1ccc(-c2ccc(C(=O)NCC(C)(C)C)cc2C(=O)O)c(C(=O)Nc2ccc3nc(N)[nH]c3c2)n1" is 1.83

Please fill in: log10 of IC50 reported for "COc1ccc(-c2ccc(C(=O)NCC(C)(C)C)cc2C(=O)O)c(C(=O)Nc2ccc3c(N)nccc3c2)n1" = 2.26

log10 of IC50 in this record for "COc1ccc(-c2ccc(C(=O)NCC(C)(C)C)cc2C(=O)O)c(C(=O)Nc2ccc(C(=N)N)cc2)n1" : 1.71

###

pIC50: −log10 of the molar value.
endpointLabel: pIC50

The reported Urokinase-type plasminogen activator (Homo sapiens) pIC50 of "COc1ccc(-c2ccc(C(=O)NCC(C)(C)C)cc2C(=O)O)c(C(=O)Nc2ccc3nc(N)[nH]c3c2)n1" is < 4.48

Log: Urokinase-type plasminogen activator (Homo sapiens), compound "COc1ccc(-c2ccc(C(=O)NCC(C)(C)C)cc2C(=O)O)c(C(=O)Nc2ccc(C(=N)N)cc2)n1" , pIC50 = 4.81

Reported Urokinase-type plasminogen activator (Homo sapiens) pIC50 for item "COc1ccc(-c2ccc(C(=O)N[C@H](CO)C(C)(C)C)cc2C(=O)O)c(C(=O)Nc2ccc3nc(N)[nH]c3c2)n1" was < 4.48

Reported pIC50 (Urokinase-type plasminogen activator (Homo sapiens)) for entry "COc1ccc(-c2ccc(C(=O)N[C@H](CO)C(C)(C)C)cc2C(=O)O)c(C(=O)Nc2ccc3c(N)nccc3c2)n1" is < 4.48

Observed pIC50, Urokinase-type plasminogen activator (Homo sapiens), "COc1ccc(-c2ccc(C(=O)N[C@H](CO)C(C)(C)C)cc2C(=O)O)c(C(=O)Nc2cccc(C(N)=O)c2)n1" : < 4.48

###

pIC50, Coagulation factor XI (Homo sapiens): measured values
The quantity pIC50 is defined as the negative base-10 logarithm of the molar concentration.

For reference, reported pIC50 for "COc1ccc(-c2ccc(C(=O)NCC(C)(C)C)cc2C(=O)O)c(C(=O)Nc2ccc3nc(N)[nH]c3c2)n1" stands at 4.68

Measured pIC50, "COc1ccc(-c2ccc(C(=O)N[C@H](CO)C(C)(C)C)cc2C(=O)O)c(C(=O)Nc2ccc(C(=N)N)cc2)n1" : 5.41

Per the records, this compound ( "COc1ccc(-c2ccc(C(=O)NCC(C)(C)C)cc2C(=O)O)c(C(=O)Nc2ccc3c(N)nccc3c2)n1" ) has pIC50 equal to 5.14

###

Tissue-type plasminogen activator (Homo sapiens) data, read-out IC50
Sequence (P00750 whole entry): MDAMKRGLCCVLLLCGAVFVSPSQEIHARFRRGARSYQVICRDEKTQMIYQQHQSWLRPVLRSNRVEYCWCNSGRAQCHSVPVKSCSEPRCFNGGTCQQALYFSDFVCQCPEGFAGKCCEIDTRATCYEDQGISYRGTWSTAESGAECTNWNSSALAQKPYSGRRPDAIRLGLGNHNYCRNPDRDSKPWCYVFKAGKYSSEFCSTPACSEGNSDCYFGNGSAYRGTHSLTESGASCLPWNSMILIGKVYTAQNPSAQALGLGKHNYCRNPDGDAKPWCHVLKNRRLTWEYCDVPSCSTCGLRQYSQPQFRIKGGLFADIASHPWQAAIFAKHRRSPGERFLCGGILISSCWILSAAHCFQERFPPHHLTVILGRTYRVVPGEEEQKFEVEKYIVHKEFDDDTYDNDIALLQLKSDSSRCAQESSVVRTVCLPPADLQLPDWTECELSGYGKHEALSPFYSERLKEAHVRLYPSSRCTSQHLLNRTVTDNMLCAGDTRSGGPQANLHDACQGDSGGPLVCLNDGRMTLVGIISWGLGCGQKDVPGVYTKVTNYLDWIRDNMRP

molecule "COc1ccc(-c2ccc(C(=O)NCC(C)(C)C)cc2C(=O)O)c(C(=O)Nc2ccc(C(=N)N)cc2)n1" , IC50 observed: > 33 µM

Per the records, this molecule ( "COc1ccc(-c2ccc(C(=O)NCC(C)(C)C)cc2C(=O)O)c(C(=O)Nc2ccc3nc(N)[nH]c3c2)n1" ) has IC50 equal to > 33 µM

Looking up "COc1ccc(-c2ccc(C(=O)N[C@H](CO)C(C)(C)C)cc2C(=O)O)c(C(=O)Nc2ccc3nc(N)[nH]c3c2)n1" , I see its IC50 listed as > 33 µM

###

Assign pIC50 to each entry below.
Protein target, amino acids: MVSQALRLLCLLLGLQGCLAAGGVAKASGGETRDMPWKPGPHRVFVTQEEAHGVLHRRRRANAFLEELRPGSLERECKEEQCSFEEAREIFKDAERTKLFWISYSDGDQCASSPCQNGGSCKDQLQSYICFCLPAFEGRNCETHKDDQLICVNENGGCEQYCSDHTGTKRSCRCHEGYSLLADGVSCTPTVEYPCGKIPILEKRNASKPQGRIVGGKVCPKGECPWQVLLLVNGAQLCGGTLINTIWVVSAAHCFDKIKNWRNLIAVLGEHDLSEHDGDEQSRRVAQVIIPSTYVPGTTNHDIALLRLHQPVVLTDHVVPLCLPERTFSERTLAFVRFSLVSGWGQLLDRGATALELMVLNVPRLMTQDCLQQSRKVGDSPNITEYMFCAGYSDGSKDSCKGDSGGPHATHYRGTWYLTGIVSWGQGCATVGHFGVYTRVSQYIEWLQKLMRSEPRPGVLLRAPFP
In textbook form, pIC50 equals minus log to base ten of the concentration in mol/L.

The value of pIC50 measured for the compound "CCCOc1ccc(-c2ccc(C(=O)NCC(C)(C)C)cc2C(=O)O)c(C(=O)Nc2ccc3c(N)nccc3c2)n1" turned out to be 7.90

Data point: "COc1ccc(-c2ccc(C(=O)N[C@H](CO)C(C)(C)C)cc2C(=O)O)c(C(=O)Nc2ccc3nc(N)[nH]c3c2)n1" ; pIC50 = 7.22

Measured pIC50 of "COc1ccc(-c2ccc(C(=O)NCC(C)(C)C)cc2C(=O)O)c(C(=O)Nc2ccc(C(=N)N)cc2)n1" : 7.96

The recorded pIC50 for entry "C=Cc1ccc(-c2ccc(C(=O)NCC(C)(C)C)cc2C(=O)O)c(C(=O)Nc2ccc3c(N)nccc3c2)n1" equals 7.64

The reported value for "CNc1ccc(-c2ccc(C(=O)NCC(C)(C)C)cc2C(=O)O)c(C(=O)Nc2ccc3c(N)nccc3c2)n1" in terms of pIC50 is 7.29

Data point: "CC(C)COc1ccc(-c2ccc(C(=O)NCC(C)(C)C)cc2C(=O)O)c(C(=O)Nc2ccc3c(N)nccc3c2)n1" ; pIC50 = 6.36

Entry under test: "COc1ccc(-c2ccc(C(=O)NCC(C)(C)C)cc2C(=O)O)c(C(=O)Nc2ccc3c(N)nccc3c2)n1" . Its pIC50 was 7.89

// recorded pIC50 for "CCNc1ccc(-c2ccc(C(=O)NCC(C)(C)C)cc2C(=O)O)c(C(=O)Nc2ccc3c(N)nccc3c2)n1" : 8.05

Sure, the documented pIC50 for "C=C(C)COc1ccc(-c2ccc(C(=O)NCC(C)(C)C)cc2C(=O)O)c(C(=O)Nc2ccc3c(N)nccc3c2)n1" is 6.95

Entry under test: "CCOc1ccc(-c2ccc(C(=O)NCC(C)(C)C)cc2C(=O)O)c(C(=O)Nc2ccc3c(N)nccc3c2)n1" . Its pIC50 was 7.96

###

I'd be grateful if you could share measured IC50 for these entries.
measurementTarget: Trypsin (Homo sapiens, UniProt P07477+P07478+P35030)
assayMethodText: Inhibition of human trypsin using chromozyme-TRY as substrate after 3 mins
Type: protein assay

Sure, the documented IC50 for "COc1ccc(-c2ccc(C(=O)NCC(C)(C)C)cc2C(=O)O)c(C(=O)Nc2ccc3nc(N)[nH]c3c2)n1" is > 33 µM

Sure, the documented IC50 for "COc1ccc(-c2ccc(C(=O)N[C@H](CO)C(C)(C)C)cc2C(=O)O)c(C(=O)Nc2ccc3nc(N)[nH]c3c2)n1" is > 33 µM

Measured IC50, "COc1ccc(-c2ccc(C(=O)N[C@H](CO)C(C)(C)C)cc2C(=O)O)c(C(=O)Nc2cccc(C(N)=O)c2)n1" : > 33 µM
